Source listed as patent US8664391B2.

experimentalDetails: Cytotoxicity in mock-infected MT4 CMV-EGFP cells
Type: cell-based
conditionParameters: human, pCC50 = -log10(CC50), read-out: Toxicity MT4 pCC50 (converted)
Quick reference for CC50 at 3 days among some compounds
Please respond with the number in µM and leave the unit unwritten.

Worked examples, 5 compounds total:
CC(C)CN(C[C@@H](O)[C@H](Cc1ccccc1)NC(=O)OCc1cncs1)C(=O)c1ccc[nH]1 : 89.1
Cc1ccc(C(=O)N(CC(C)C)C[C@@H](O)[C@H](Cc2ccccc2)NC(=O)OCc2cncs2)cc1 : 70.8
CC(C)CN(C[C@@H](O)[C@H](Cc1ccccc1)NC(=O)OCc1cncs1)C(=O)c1ccc2c(c1)OCO2 : 57.5
CC(C)CN(C[C@@H](O)[C@H](Cc1ccccc1)NC(=O)OCc1cncs1)C(=O)C1CCC(F)(F)CC1 : 55
COc1cccc(C(=O)N(CC(C)C)C[C@@H](O)[C@H](Cc2ccccc2)NC(=O)OCc2cncs2)c1 : 70.8

Please give the measured CC50 at 3 days for this compound: "CC(C)CN(C[C@@H](O)[C@H](Cc1ccccc1)NC(=O)OCc1cncs1)C(=O)c1ccc(Cl)cc1"
40.7

Requested read-out: CC50 at 3 days. Entry: "CC(C)CN(C[C@@H](O)[C@H](Cc1ccccc1)NC(=O)OCc1cncs1)C(=O)c1cnc2ccccc2n1"
61.7

Fill in: CC50 at 3 days of "O=C(N[C@@H](Cc1ccccc1)[C@H](O)CN(CC1CCCCC1)C(=O)c1ccncc1)OCc1cncs1" is ___
83.2

Item "CC(C)CN(C[C@@H](O)[C@H](Cc1ccccc1)NC(=O)OCc1cncs1)C(=O)c1cccc(C(F)(F)F)c1" has what recorded CC50 at 3 days?
34.7

// lookup CC50 at 3 days for "COc1ccc(C(=O)N(CC(C)C)C[C@@H](O)[C@H](Cc2ccccc2)NC(=O)OCc2cncs2)cc1"
87.1

Would you kindly share the measured CC50 at 3 days for "CC(C)CN(C[C@@H](O)[C@H](Cc1ccccc1)NC(=O)OCc1cncs1)C(=O)c1ccc2occc2c1" ?
45.7

Give its CC50 at 3 days value. Item: "CC(C)CN(C[C@@H](O)[C@H](Cc1ccccc1)NC(=O)OCc1cncs1)C(=O)c1ccc(Br)cc1"
41.7

---

target: CYP3A4 (Homo sapiens)
Construct: host or cells: E. coli
Sequence (P08684 whole entry): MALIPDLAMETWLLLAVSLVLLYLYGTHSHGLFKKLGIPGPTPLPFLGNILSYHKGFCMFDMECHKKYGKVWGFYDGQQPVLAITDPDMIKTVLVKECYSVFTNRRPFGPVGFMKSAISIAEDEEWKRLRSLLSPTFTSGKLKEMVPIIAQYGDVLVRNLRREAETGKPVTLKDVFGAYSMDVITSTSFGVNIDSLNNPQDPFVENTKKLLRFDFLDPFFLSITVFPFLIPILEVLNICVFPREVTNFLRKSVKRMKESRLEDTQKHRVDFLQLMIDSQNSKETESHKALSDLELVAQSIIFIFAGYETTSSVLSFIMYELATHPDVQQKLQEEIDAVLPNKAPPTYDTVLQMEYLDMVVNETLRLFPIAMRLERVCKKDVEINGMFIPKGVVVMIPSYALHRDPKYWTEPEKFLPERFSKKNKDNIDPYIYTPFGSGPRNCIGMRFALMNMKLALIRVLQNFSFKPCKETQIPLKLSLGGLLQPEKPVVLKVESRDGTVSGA
experimentalDetails: CYP450 inhibition, fluorescent substrate assay, CYP3A4
Format: biochemical
conditionParameters: E. coli expressed CYP3A4, pH 7.4, probe BFC (150 μM), 10 μM test compound, substrate BFC 150 μM, 30 min, read-out: 3A4-BFC % inh.
Parameter: inhibition at 30 min, 10 μM. Scope: all listed entries.
Output spec: scalar in %, unitless text.

// below: answered compounds
CC(C)CN(C[C@@H](O)[C@H](Cc1ccccc1)NC(=O)OCc1cncs1)C(=O)c1ccc(F)cc1 : 82
CC(C)CN(C[C@@H](O)[C@H](Cc1ccccc1)NC(=O)OCc1cncs1)C(=O)c1ccncc1 : 91
CC(C)CN(C[C@@H](O)[C@H](Cc1ccccc1)NC(=O)OCc1cncs1)C(=O)c1ccc(C(F)(F)F)cc1 : 95
Cc1ccc(C(=O)N(CC(C)C)C[C@@H](O)[C@H](Cc2ccccc2)NC(=O)OCc2cncs2)cc1 : 95
CC(C)CN(C[C@@H](O)[C@H](Cc1ccccc1)NC(=O)OCc1cncs1)C(=O)C1CCC(F)(F)CC1 : 94

Given "O=C(N[C@@H](Cc1ccccc1)[C@H](O)CN(CC1CCCCC1)C(=O)c1ccncc1)OCc1cncs1" , state its recorded inhibition at 30 min, 10 μM.
101

Item under review: "CC(C)CN(C[C@@H](O)[C@H](Cc1ccccc1)NC(=O)OCc1cncs1)C(=O)c1cccc(Br)c1" . Reported inhibition at 30 min, 10 μM?
57

---

target: CYP3A4 (Homo sapiens)
Construct: host or cells: E. coli
experimentalDetails: CYP450 inhibition, fluorescent substrate assay, CYP3A4
Format: biochemical
conditionParameters: E. coli expressed CYP3A4, pH 7.4, probe BQ (60 μM), 10 μM test compound, substrate BQ 60 μM, 30 min, read-out: 3A4-BQ % inh.
Could you label it t if measured inhibition at 30 min, 10 μM is 80% or higher, and f otherwise?

Cc1ccc(C(=O)N(CC(C)C)C[C@@H](O)[C@H](Cc2ccccc2)NC(=O)OCc2cncs2)cc1 : t
CC(C)CN(C[C@@H](O)[C@H](Cc1ccccc1)NC(=O)OCc1cncs1)C(=O)c1ccc(Br)cc1 : t
CC(C)CN(C[C@@H](O)[C@H](Cc1ccccc1)NC(=O)OCc1cncs1)C(=O)c1ccc(F)cc1 : t
CC(C)(O)CN(C[C@@H](O)[C@H](Cc1ccccc1)NC(=O)OCc1cncs1)C(=O)c1ccncc1 : f
CC(C)CN(C[C@@H](O)[C@H](Cc1ccccc1)NC(=O)OCc1cncs1)C(=O)c1cccnc1 : t
CC(C)CN(C[C@@H](O)[C@H](Cc1ccccc1)NC(=O)OCc1cncs1)C(=O)c1ccc(C(F)(F)F)cc1 : t
CC(C)(C)CN(C[C@@H](O)[C@H](Cc1ccccc1)NC(=O)OCc1cncs1)C(=O)c1ccncc1 : f
CC(C)CN(C[C@@H](O)[C@H](Cc1ccccc1)NC(=O)OCc1cccnc1)C(=O)c1ccncc1 : f

Query molecule follows.
Can "CC(C)CN(C[C@@H](O)[C@H](Cc1ccccc1)NC(=O)OCc1cncs1)C(=O)C1CCC(F)(F)CC1" be said to have inhibition at 30 min, 10 μM at or above 80%?
f

---

experimentalDetails: in vitro
Assay type: in vitro ADME, human
conditionParameters: human, pH 7.4
experimentalEndpoint: recovery at 15 min, 5 μM
Don't forget the unit after the value.

Known results for compounds:
CC(C)CN(C[C@@H](O)[C@H](Cc1ccccc1)NC(=O)OCc1cncs1)C(=O)c1cnc2ccccc2n1 : 67%
CC(C)CN(C[C@@H](O)[C@H](Cc1ccccc1)NC(=O)OCc1cncs1)C(=O)c1ccc2occc2c1 : 67%
CC(C)CN(C[C@@H](O)[C@H](Cc1ccccc1)NC(=O)OCc1cncs1)C(=O)OCc1cncs1 : 63%

I have this compound here, "CC(C)CN(C[C@@H](O)[C@H](Cc1ccccc1)NC(=O)OCc1cncs1)C(=O)c1cccc(F)c1" , and I need its recorded recovery at 15 min, 5 μM.
69%

Data request, read-out recovery at 15 min, 5 μM, for "CC(C)CN(C[C@@H](O)[C@H](Cc1ccccc1)NC(=O)OCc1cncs1)C(=O)c1cccc(C(F)(F)F)c1"
52%

# input compound: "COc1cccc(C(=O)N(CC(C)C)C[C@@H](O)[C@H](Cc2ccccc2)NC(=O)OCc2cncs2)c1" ; wanted: its recovery at 15 min, 5 μM
56%

Quick check: recovery at 15 min, 5 μM of "CC(C)(C)CN(C[C@@H](O)[C@H](Cc1ccccc1)NC(=O)OCc1cncs1)C(=O)c1ccncc1" ?
77%

For the compound "CC(C)CN(C[C@@H](O)[C@H](Cc1ccccc1)NC(=O)OCc1cncs1)C(=O)CCc1cncs1" , what recovery at 15 min, 5 μM is on record?
56%

recovery at 15 min, 5 μM for "CC(C)CN(C[C@@H](O)[C@H](Cc1ccccc1)NC(=O)OCc1cccnc1)C(=O)c1ccncc1" ?
37%

What does the record list as recovery at 15 min, 5 μM for "CC(C)CN(C[C@@H](O)[C@H](Cc1ccccc1)NC(=O)OCc1cncs1)C(=O)c1ccc(Cl)cc1" ?
59%

Reported recovery at 15 min, 5 μM, compound "COc1ccc(C(=O)N(CC(C)C)C[C@@H](O)[C@H](Cc2ccccc2)NC(=O)OCc2cncs2)cc1" : ____
83%

Bench note: what recovery at 15 min, 5 μM did "Cc1cccc(C(=O)N(CC(C)C)C[C@@H](O)[C@H](Cc2ccccc2)NC(=O)OCc2cncs2)c1" show?
47%

Reported recovery at 15 min, 5 μM, compound "CC(C)(O)CN(C[C@@H](O)[C@H](Cc1ccccc1)NC(=O)OCc1cncs1)C(=O)c1ccncc1" : ____
92%

So what does the record say about recovery at 15 min, 5 μM for "CC(C)CN(C[C@@H](O)[C@H](Cc1ccccc1)NC(=O)OCc1cncs1)C(=O)C1CCC(F)(F)CC1" ?
72%

What value of measured recovery at 15 min, 5 μM is listed for "CC(C)CN(C[C@@H](O)[C@H](Cc1ccccc1)NC(=O)OCc1cncs1)C(=O)c1ccncc1" ?
81%

What value of recovery at 15 min, 5 μM has been recorded for this entry: "Cc1ccc(C(=O)N(CC(C)C)C[C@@H](O)[C@H](Cc2ccccc2)NC(=O)OCc2cncs2)cc1"
54%

---

target: CYP2C9 (Homo sapiens)
Sequence (P11712 whole entry): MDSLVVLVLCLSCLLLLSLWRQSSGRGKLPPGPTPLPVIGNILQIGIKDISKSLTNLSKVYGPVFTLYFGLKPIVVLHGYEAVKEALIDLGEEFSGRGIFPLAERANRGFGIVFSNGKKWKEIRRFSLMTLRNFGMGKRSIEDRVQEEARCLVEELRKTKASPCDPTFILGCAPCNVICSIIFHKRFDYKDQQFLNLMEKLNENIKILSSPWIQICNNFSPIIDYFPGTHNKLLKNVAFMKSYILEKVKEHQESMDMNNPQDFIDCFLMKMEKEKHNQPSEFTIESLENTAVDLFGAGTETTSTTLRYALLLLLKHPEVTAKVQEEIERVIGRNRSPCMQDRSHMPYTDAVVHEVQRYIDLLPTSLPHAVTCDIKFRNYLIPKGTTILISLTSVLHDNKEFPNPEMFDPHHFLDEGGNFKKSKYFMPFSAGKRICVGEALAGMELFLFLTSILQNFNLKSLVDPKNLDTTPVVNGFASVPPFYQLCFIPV
experimentalDetails: CYP450 inhibition, fluorescent substrate assay, CYP2C9
Assay type: biochemical
conditionParameters: pH 7.4
Measured inhibition at 30 min, 10 μM by item
Use % as the unit, but write only the number.

Known results for compounds:
CC(C)CN(C[C@@H](O)[C@H](Cc1ccccc1)NC(=O)OCc1cncs1)C(=O)c1cccc(Cl)c1 [Compound C15] : 97
CC(C)(O)CN(C[C@@H](O)[C@H](Cc1ccccc1)NC(=O)OCc1cncs1)C(=O)c1ccncc1 [Compound C26] : 82
CC(C)CN(C[C@@H](O)[C@H](Cc1ccccc1)NC(=O)OCc1cncs1)C(=O)c1ccccn1 [Compound C9] : 85
CC(C)CN(C[C@@H](O)[C@H](Cc1ccccc1)NC(=O)OCc1cncs1)C(=O)c1cccc(C(F)(F)F)c1 [Compound C11] : 97
CC(C)CN(C[C@@H](O)[C@H](Cc1ccccc1)NC(=O)OCc1cncs1)C(=O)c1ccncc1 [Compound C8] : 95

Looking for the measured inhibition at 30 min, 10 μM of CC(C)(C)CN(C[C@@H](O)[C@H](Cc1ccccc1)NC(=O)OCc1cncs1)C(=O)c1ccncc1 [Compound C22] , can you help?
69

# input compound: CC(C)CN(C[C@@H](O)[C@H](Cc1ccccc1)NC(=O)OCc1cncs1)C(=O)c1ccc(Cl)cc1 [Compound C16] ; wanted: its inhibition at 30 min, 10 μM
97
